- System: 3D7
- assay.remarks: qHTS profiling for inhibitors of Plasmodium falciparum proliferation (AID 504749); further: nearly all actives have a fitted effect of over 60% in size; further: potency means the concentration at half of the fitted maximal effect
- experimental.context: P. falciparum in erythrocytes, SYBR Green DNA, 72 h; series mostly up to 28.7 µM
- Experimental: NIH National Institute of Allergy and Infectious Diseases [NIAID] NIH Chemical Genomics Center [NCGC] […] Because mature erythrocytes lack DNA, only Plasmodium-derived DNA is detected. NCGC Assay Protocol Summary: The SYBR Green viability assay was adapted from a method described previously (Plouffe et al., 2008). […] The following morning, fluorescence intensity at 485(14) nm excitation and 535(25) nm emission wavelengths was measured on an EnVision (Perkin Elmer) plate reader. […]
Results filed as inconclusive are left out. Activity calls are given as the source filed them. The call rests on the fitted dose curve; in most records, active means well fitted inhibition curve with a large enough effect; inconclusive means small, poorly fitted or top-dose-only effect; inactive means flat fitted curve, though single readings scatter.
observed.property: Potency

{"columns": ["compound", "result"],
 "data": [
  ["CCOC(=O)c1cccc(N)c1", "inactive"],
  ["CC(C)(C)CC(C)(C)c1ccc(OCCOCC[N+](C)(C)Cc2ccccc2)cc1", "1.78 µM (active)"],
  ["CC(O)(P(=O)(O)O)P(=O)(O)O", "inactive"],
  ["CCC(=O)c1c(O)cc(O)cc1O", "inactive"],
  ["CNCCC(Oc1ccccc1C)c1ccccc1 (stereo unspecified)", "inactive"],
  ["CC1(C)CCC(NC(=O)[C@@H](N)CCC(=O)O)CC1", "inactive"],
  ["NC(=O)C(=O)N/N=C/c1ccc([N+](=O)[O-])o1", "inactive"],
  ["O=C(O)c1cc2cc(Cc3cccnc3)ccc2o1", "inactive"],
  ["O=c1ccc2ccccc2o1", "inactive"],
  ["OC(CCN1CCCCC1)(c1ccccc1)c1ccccc1", "inactive"],
  ["CCOc1ccc(NC(=O)CC(C)O)cc1 (stereo unspecified)", "inactive"],
  ["N[C@H](CO)C(=O)O", "inactive"],
  ["CC(=O)c1ccc2c(c1)N(CCCN1CCC(CCO)CC1)c1ccccc1S2", "inactive"],
  ["COC(=O)[C@@H]1CC2=CC(=O)CC[C@]2(C)[C@@]23O[C@@H]2C[C@@]2(C)[C@@H](CC[C@@]24CCC(=O)O4)[C@H]13", "inactive"],
  ["CC(=O)N/N=C/c1ccc([N+](=O)[O-])o1", "inactive"],
  ["C=CCc1ccc(O)c(OC)c1", "inactive"],
  ["Cc1ncc(CSSCc2cnc(C)c(O)c2CO)c(CO)c1O", "inactive"],
  ["C#C[C@]1(O)CC[C@H]2[C@@H]3CCc4cc(OC5CCCC5)ccc4[C@H]3CC[C@@]21C", "inactive"],
  ["NC(CO)(CO)CO", "inactive"],
  ["CCN1CCN(c2cc3c(cc2F)c(=O)c(C(=O)O)cn3C2CC2)CC1", "inactive"],
  ["C[C@H](O)C(=O)Nc1c(I)c(C(=O)NC(CO)CO)c(I)c(C(=O)NC(CO)CO)c1I", "inactive"],
  ["CCOC(=O)n1ccn(C)c1=S", "inactive"],
  ["O=S1(=O)c2cccc3cccc(c23)N1CCCN1CCN(c2ccc(F)cc2)CC1", "inactive"],
  ["CN1CCN(C(c2ccccc2)c2ccccc2)CC1", "inactive"],
  ["C1CCc2nnnn2CC1", "inactive"],
  ["CC(=O)Nc1c(I)cc(I)c(C(=O)O)c1I", "inactive"]
]}
